# assayInfo: Plasma kinetic study of colchicine with and without Schisandrin A
# Format: in vivo
# runConditions: male, Sprague Dawley, rat, po, 3 mg/kg, Group7, rats, Schisandrin A 63.0 mg/kg oral 5 min before colchicine 3.0 mg/kg oral, read-out: MRT0→∞ of colchicine

{"molecule": "COc1cc2c(c(OC)c1OC)-c1ccc(OC)c(=O)cc1[C@@H](NC(C)=O)CC2 [colchicine]", "measurementUnit": "h", "MRT inf": 7.52}

---

# assayInfo: Plasma kinetic study of colchicine with and without Schisandrin A
# Format: in vivo
# runConditions: male, Sprague Dawley, rat, po, 3 mg/kg, Group4, rats, Schisandrin A 12.6 mg/kg oral 5 min before colchicine 3.0 mg/kg oral
# Procedure: 42 Male Sprague Dawley rats (weight, 170-210 g) were maintained on a 12-h light/dark cycle with free access to water and lab chow for 10-14 h prior to the experiment. Rats were randomly divided into 7 groups (n=6 each) and groups 2-7 received 0 mg/kg, 6.3 mg/kg, and 12.6 mg/kg, 25.2 mg/kg, 50.4 mg/kg and 63.0 mg/kg of Schisandrin A in 1% CMC-Na (300-800 cps) via oral administration, respectively. […]

{"smilesCode": "COc1cc2c(c(OC)c1OC)-c1ccc(OC)c(=O)cc1[C@@H](NC(C)=O)CC2", "Cmax [ng/mL]": 25.7}

---

# assayInfo: Plasma kinetic study of celastrol with and without Schisandrin A
# Format: in vivo, Sprague Dawley rats
# runConditions: male, Sprague Dawley, rat, plasma, po, 1.8 mg/kg, Group6; rats, Schisandrin A 44.0 mg/kg oral 5 min before celastrol 1.8 mg/kg oral; read-out: AUC0→∞ of celastrol

{"molecule": "CC1=C(O)C(=O)C=C2C1=CC=C1[C@@]2(C)CC[C@@]2(C)[C@@H]3C[C@](C)(C(=O)O)CC[C@]3(C)CC[C@]12C [celastrol]", "measurementUnit": "ng·h/mL", "AUC(0-inf)": 198}

---

# assayInfo: Plasma kinetic study of celastrol with and without Schisandrin A
# Format: in vivo, Sprague Dawley rats
# runConditions: male, Sprague Dawley, rat, plasma, po, 1.8 mg/kg, Group1; rats, celastrol 1.8 mg/kg oral, no Schisandrin A dose stated; read-out: MRT0→t of celastrol
readout: MRT last (h)

{"smilesCode": "CC1=C(O)C(=O)C=C2C1=CC=C1[C@@]2(C)CC[C@@]2(C)[C@@H]3C[C@](C)(C(=O)O)CC[C@]3(C)CC[C@]12C", "measuredResult": 12.1}

---

# assayInfo: Plasma kinetic study of celastrol with and without Schisandrin A
# Type: in vivo, Sprague Dawley rats
# runConditions: male, Sprague Dawley, rat, plasma, po, 1.8 mg/kg, Group1; rats, celastrol 1.8 mg/kg oral, no Schisandrin A dose stated
readout: Tmax (h)

{"smilesCode": "CC1=C(O)C(=O)C=C2C1=CC=C1[C@@]2(C)CC[C@@]2(C)[C@@H]3C[C@](C)(C(=O)O)CC[C@]3(C)CC[C@]12C", "measuredResult": 5.33}

---

# assayInfo: in vivo
# Set-up: species or system Sprague Dawley rats
# runConditions: male, Sprague Dawley, rat, po, 2.4 mg/kg, MRT0→∞ of triptolide

{"molecule": "CC(C)[C@]12O[C@H]1[C@@H]1O[C@]13[C@]1(O[C@H]1C[C@H]1C4=C(CC[C@@]13C)C(=O)OC4)[C@@H]2O [triptolide]", "MRT inf, min": 39.6}

---

# assayInfo: in vivo
# Set-up: species or system Sprague Dawley rats
# runConditions: male, Sprague Dawley, rat, po, 2.4 mg/kg, AUC0→t of triptolide

{"compound": "CC(C)[C@]12O[C@H]1[C@@H]1O[C@]13[C@]1(O[C@H]1C[C@H]1C4=C(CC[C@@]13C)C(=O)OC4)[C@@H]2O [triptolide]", "AUC(0-t)": "31.5 ng·h/mL"}

---

# assayInfo: Plasma kinetic study of colchicine with and without Schisandrin A
# Type: in vivo
# runConditions: male, Sprague Dawley, rat, po, 3 mg/kg, Group5, rats, Schisandrin A 25.2 mg/kg oral 5 min before colchicine 3.0 mg/kg oral, read-out: MRT0→∞ of colchicine
readout: MRT inf

{"molecule": "COc1cc2c(c(OC)c1OC)-c1ccc(OC)c(=O)cc1[C@@H](NC(C)=O)CC2 [colchicine]", "measuredResult": "7.29 h"}

---

# assayInfo: Plasma kinetic study of celastrol with and without Schisandrin A
# Format: in vivo, Sprague Dawley rats
# runConditions: male, Sprague Dawley, rat, plasma, po, 1.8 mg/kg, Group2; rats, Schisandrin A 0 mg/kg oral 5 min before celastrol 1.8 mg/kg oral; read-out: AUC0→t of celastrol
readout: AUC(0-t) (ng·h/mL)

{"compound": "CC1=C(O)C(=O)C=C2C1=CC=C1[C@@]2(C)CC[C@@]2(C)[C@@H]3C[C@](C)(C(=O)O)CC[C@]3(C)CC[C@]12C [celastrol]", "measuredResult": 93.2}

---

# assayInfo: Plasma kinetic study of celastrol with and without Schisandrin A
# Assay type: in vivo, Sprague Dawley rats
# runConditions: male, Sprague Dawley, rat, plasma, po, 1.8 mg/kg, Group4; rats, Schisandrin A 11.0 mg/kg oral 5 min before celastrol 1.8 mg/kg oral; read-out: AUC0→∞ of celastrol

{"smilesCode": "CC1=C(O)C(=O)C=C2C1=CC=C1[C@@]2(C)CC[C@@]2(C)[C@@H]3C[C@](C)(C(=O)O)CC[C@]3(C)CC[C@]12C", "AUC(0-inf)": "133 ng·h/mL"}

---

# assayInfo: Plasma kinetic study of celastrol with and without Schisandrin A
# Format: in vivo, Sprague Dawley rats
# runConditions: male, Sprague Dawley, rat, plasma, po, 1.8 mg/kg, Group1; rats, celastrol 1.8 mg/kg oral, no Schisandrin A dose stated; read-out: MRT0→∞ of celastrol
# Method: 42 Male Sprague Dawley rats (weight, 210-250 g) were maintained on a 12-hour light/dark cycle with free access to water and lab chow for 10-14 h prior to the experiment. Rats were randomly divided into 7 groups (n=6 each) and groups 2-7 received 0 mg/kg, 5.5 mg/kg, and 11.0 mg/kg, 22.0 mg/kg, 44.0 mg/kg and 88.0 mg/kg of Schisandrin A in 1% CMC-Na (300-800 cps) via oral administration, respectively. […]
readout: MRT inf (h)

{"smilesCode": "CC1=C(O)C(=O)C=C2C1=CC=C1[C@@]2(C)CC[C@@]2(C)[C@@H]3C[C@](C)(C(=O)O)CC[C@]3(C)CC[C@]12C", "readout": "MRT inf", "measuredResult": 12.1}

---

# assayInfo: Plasma kinetic study of colchicine with and without Schisandrin A
# Type: in vivo
# runConditions: male, Sprague Dawley, rat, po, 3 mg/kg, Group7, rats, Schisandrin A 63.0 mg/kg oral 5 min before colchicine 3.0 mg/kg oral, read-out: AUC0→t of colchicine

{"smilesCode": "COc1cc2c(c(OC)c1OC)-c1ccc(OC)c(=O)cc1[C@@H](NC(C)=O)CC2", "AUC(0-t)": "84.8 ng·h/mL"}

---

# assayInfo: in vivo
# Design: species or system Sprague Dawley rats
# runConditions: male, Sprague Dawley, rat, po, 2.4 mg/kg, Tmax of triptolide

{"compound": "CC(C)[C@]12O[C@H]1[C@@H]1O[C@]13[C@]1(O[C@H]1C[C@H]1C4=C(CC[C@@]13C)C(=O)OC4)[C@@H]2O [triptolide]", "measurementUnit": "min", "Tmax": 9.96}

---

# assayInfo: Plasma kinetic study of colchicine with and without Schisandrin A
# Format: in vivo
# runConditions: male, Sprague Dawley, rat, po, 3 mg/kg, Group5, rats, Schisandrin A 25.2 mg/kg oral 5 min before colchicine 3.0 mg/kg oral, read-out: T1/2 of colchicine (converted)
readout: half-life (h)

{"smilesCode": "COc1cc2c(c(OC)c1OC)-c1ccc(OC)c(=O)cc1[C@@H](NC(C)=O)CC2", "readout": "half-life", "measuredResult": 7.53}

---

# assayInfo: Plasma kinetic study of celastrol with and without Schisandrin A
# Type: in vivo, Sprague Dawley rats
# runConditions: male, Sprague Dawley, rat, plasma, po, 1.8 mg/kg, Group4; rats, Schisandrin A 11.0 mg/kg oral 5 min before celastrol 1.8 mg/kg oral; read-out: AUC0→t of celastrol
readout: AUC(0-t) (ng·h/mL)

{"compound": "CC1=C(O)C(=O)C=C2C1=CC=C1[C@@]2(C)CC[C@@]2(C)[C@@H]3C[C@](C)(C(=O)O)CC[C@]3(C)CC[C@]12C [celastrol]", "readout": "AUC(0-t)", "measurementUnit": "ng·h/mL", "measuredResult": 123}

---

# assayInfo: Plasma kinetic study of colchicine with and without Schisandrin A
# Type: in vivo
# runConditions: male, Sprague Dawley, rat, po, 3 mg/kg, Group3, rats, Schisandrin A 6.3 mg/kg oral 5 min before colchicine 3.0 mg/kg oral, read-out: T1/2 of colchicine (converted)

{"compound": "COc1cc2c(c(OC)c1OC)-c1ccc(OC)c(=O)cc1[C@@H](NC(C)=O)CC2 [colchicine]", "half-life": "6.12 h"}
